Just for reference, patent US20200179319A1 is where these values come from.

- test.description: Stability Study 2 conducted at 5° C.: storage stability of a formulation comprising the disodium salt, HPLC
- Assay type: physicochemical
- test.parameters: 1 month at 5° C.
property: weight percentage of the component, 1 months (weight percentage)

• CCCOC(=O)c1ccc(O)cc1 [Propylparaben] = 0.032

P = CC(C)=CCC/C(C)=C/CC/C(C)=C/C[S+]([O-])C[C@H](NC(=O)CCC(=O)O)C(=O)O (stereo partly shown)
Q = COC(=O)c1ccc(O)cc1 [Methylparaben]
R = CC(C)=CCC/C(C)=C/CC/C(C)=C/CSC[C@H](NC(=O)CCC(=O)O)C(=O)O
// ascending sort on recorded weight percentage of the component, 1 months Ranked list of labels, please, in the requested order.
P, Q, R
(P: 0.039 weight percentage, Q: 0.17 weight percentage, R: 3.01 weight percentage)

====

- test.description: Stability Study 2 conducted at 5° C.: storage stability of a formulation comprising the disodium salt, HPLC
- Format: physicochemical
- test.parameters: 12 months at 5° C.
property: weight percentage of the component, 12 months (weight percentage)

- CC(C)=CCC/C(C)=C/CC/C(C)=C/CSC[C@H](NC(=O)CCC(=O)O)C(=O)O: 3.06

A = CC(C)=CCC/C(C)=C/CC/C(C)=C/C[S+]([O-])C[C@H](NC(=O)CCC(=O)O)C(=O)O (stereo partly shown)
B = CCCOC(=O)c1ccc(O)cc1
Between the entries labeled A and B , whose measured weight percentage of the component, 12 months is lower? Kindly state the label of the option you pick.
B
(B: 0.032 weight percentage, A: 0.050 weight percentage)

====

- test.description: Screening Study (Example 5): sulfoxide formed in API solution with each agent, HPLC
- Assay type: physicochemical
- test.parameters: pH 7.4 to 7.5 buffer; API disodium salt solution plus agent; 24 hours exposed to air at room temperature, not protected from light
property: Average % area sulfoxide for 3 runs per agent (%)

- Cc1cc(C(C)(C)C)c(O)c(C(C)(C)C)c1 [Butylated hydroxytoluene (BHT), Butylated hydroxytoluene]: 1.186
- CC(C)(C)c1cc(O)ccc1O [Tert-butylhydroquinone (TBHQ), Tert-butylhydroquinone]: 8.546
- O=S([O-])([O-])=S.[Na+].[Na+] [Sodium thiosulfate]: 1.117

a = O=C1O[C@H]([C@@H](O)CO)C(O)=C1O
b = CC(=O)Oc1c(C)c(C)c2c(c1C)CCC(C)(CCC[C@H](C)CCC[C@H](C)CCCC(C)C)O2 (some centres unmarked) [Vitamin E acetate]
Between the entries labeled a and b , whose measured Average % area sulfoxide for 3 runs per agent is lower? Kindly state the label of the option you pick.
b

====

- test.description: Stability Study 1: storage stability of a formulation comprising the disodium salt, HPLC
- Format: physicochemical
- test.parameters: after 6 months storage; 25° C., heading 30° C.
property: % weight in formulation after 6 months (%)

- CC(C)=CCC/C(C)=C/CC/C(C)=C/CSC[C@H](NC(=O)CCC(=O)O)C(=O)O: 2.92

I = COC(=O)c1ccc(O)cc1
II = CC(C)=CCC/C(C)=C/CC/C(C)=C/C[S+]([O-])C[C@H](NC(=O)CCC(=O)O)C(=O)O (stereo partly shown)
III = CCCOC(=O)c1ccc(O)cc1
List from greatest to least % weight in formulation after 6 months. Ranked list of labels, please, in the requested order.
I, II, III
